# System: OVCAR-8 complex spheroid, growth inhibition
# assay.details: Anticancer human tumor OVCAR-8 cell line growth inhibition [Asc]
# experimental.conditions: second compound 0.0316 µM; first compound 0.0316 µM; active compounds read low
assay.endpoint: viability, T/C (%)

compound	assay.endpoint	result.number
C=C(F)C(=O)N1CCN(c2nc(OCC3CCCN3C)nc3c2CCN(c2cccc4cccc(Cl)c24)C3)CC1CC#N (configuration not stated) + CNC(C)C(=O)NC1CN(S(=O)(=O)c2cccc(S(=O)(=O)N3CCC4CCC(C(=O)NC(c5ccccc5)c5ccccc5)N4C(=O)C(NC(=O)C(C)NC)C3)c2)CCC2CCC(C(=O)NC(c3ccccc3)c3ccccc3)N2C1=O	viability, T/C	97.8
Cn1ncnc1[C@H]1c2n[nH]c(=O)c3cc(F)cc(c23)N[C@@H]1c1ccc(F)cc1 + Cc1c(S(C)(=O)=O)c(-c2cc(F)cc(N3CCN(c4ccc(NS(=O)(=O)c5ccc(NC(CCN6CCC(C(=O)OCCCP(=O)(O)O)CC6)CSc6ccccc6)c(S(=O)(=O)C(F)(F)F)c5)cc4)CC3)c2)c(-c2ccc(Cl)cc2)n1C(C)C	viability, T/C	127

---

# Test system: OVCAR-8 complex spheroid, growth inhibition
# assay.details: Anticancer human tumor OVCAR-8 cell line growth inhibition [Asc]; active = viability on the fitted dose curve at most 10% of control; inactive = the rest
# experimental.conditions: second compound 0.00316 µM; first compound 10 µM
Labels: TRUE = active, FALSE = inactive

compound	system.name	label.value
C#Cc1c(F)ccc2cc(O)cc(-c3ncc4c(N5CC6CCC(C5)N6)nc(OCC56CCCN5CC(F)C6)nc4c3F)c12 (centres undefined) + CNC(C)C(=O)NC1CN(S(=O)(=O)c2cccc(S(=O)(=O)N3CCC4CCC(C(=O)NC(c5ccccc5)c5ccccc5)N4C(=O)C(NC(=O)C(C)NC)C3)c2)CCC2CCC(C(=O)NC(c3ccccc3)c3ccccc3)N2C1=O	OVCAR-8 complex spheroid, growth inhibition	FALSE
O=C(c1cc(Cc2n[nH]c(=O)c3ccccc23)ccc1F)N1CCN(C(=O)C2CC2)CC1 + CNC(C)C(=O)NC1CN(S(=O)(=O)c2cccc(S(=O)(=O)N3CCC4CCC(C(=O)NC(c5ccccc5)c5ccccc5)N4C(=O)C(NC(=O)C(C)NC)C3)c2)CCC2CCC(C(=O)NC(c3ccccc3)c3ccccc3)N2C1=O	OVCAR-8 complex spheroid, growth inhibition	TRUE
C=C(F)C(=O)N1CCN(c2nc(OCC3CCCN3C)nc3c2CCN(c2cccc4cccc(Cl)c24)C3)CC1CC#N (centres undefined) + CNC(C)C(=O)NC1CN(S(=O)(=O)c2cccc(S(=O)(=O)N3CCC4CCC(C(=O)NC(c5ccccc5)c5ccccc5)N4C(=O)C(NC(=O)C(C)NC)C3)c2)CCC2CCC(C(=O)NC(c3ccccc3)c3ccccc3)N2C1=O	OVCAR-8 complex spheroid, growth inhibition	TRUE
C=CC(=O)N1CCN(c2nc(=O)n(-c3c(C)ccnc3C(C)C)c3nc(-c4c(O)cccc4F)c(F)cc23)C(C)C1 (centres undefined) + CNC(C)C(=O)NC1CN(S(=O)(=O)c2cccc(S(=O)(=O)N3CCC4CCC(C(=O)NC(c5ccccc5)c5ccccc5)N4C(=O)C(NC(=O)C(C)NC)C3)c2)CCC2CCC(C(=O)NC(c3ccccc3)c3ccccc3)N2C1=O	OVCAR-8 complex spheroid, growth inhibition	FALSE

---

# System: OVCAR-8 complex spheroid, growth inhibition
# assay.details: Anticancer human tumor OVCAR-8 cell line growth inhibition [Asc];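 further: spheroids exposed to agents for 7 days before readout; percent viability relative to DMSO vehicle wells taken as 100%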
# experimental.conditions: second compound 3 µM; first compound 1 µM; active compounds read low
In this section we review reported viability, T/C values for a set of compounds.
assay.endpoint: viability, T/C (%)

compound	result.number
O=C(c1cc(Cc2n[nH]c(=O)c3ccccc23)ccc1F)N1CCN(C(=O)C2CC2)CC1 + CCN1C(C(=O)NC23CCC(C(=O)O)(CC2)CC3)C(c2cccc(Cl)c2F)C2(C(=O)Nc3cc(Cl)ccc32)C12CCCCC2	103
C=CC(=O)N1CCN(c2nc(=O)n(-c3c(C)ccnc3C(C)C)c3nc(-c4c(O)cccc4F)c(F)cc23)C(C)C1 (stereo not given) + CCN1C(C(=O)NC23CCC(C(=O)O)(CC2)CC3)C(c2cccc(Cl)c2F)C2(C(=O)Nc3cc(Cl)ccc32)C12CCCCC2	106
CCN1CCN(Cc2ccc(Nc3ncc(F)c(-c4cc(F)c5nc(C)n(C(C)C)c5c4)n3)nc2)CC1 + CCN1C(C(=O)NC23CCC(C(=O)O)(CC2)CC3)C(c2cccc(Cl)c2F)C2(C(=O)Nc3cc(Cl)ccc32)C12CCCCC2	119
C#Cc1c(F)ccc2cc(O)cc(-c3ncc4c(N5CC6CCC(C5)N6)nc(OCC56CCCN5CC(F)C6)nc4c3F)c12 (stereo not given) + CCN1C(C(=O)NC23CCC(C(=O)O)(CC2)CC3)C(c2cccc(Cl)c2F)C2(C(=O)Nc3cc(Cl)ccc32)C12CCCCC2	115
COc1c(OCCCN2CCOCC2)ccc2c3n(c(=NC(=O)c4cnc(N)nc4)nc12)CCN3 + CCN1C(C(=O)NC23CCC(C(=O)O)(CC2)CC3)C(c2cccc(Cl)c2F)C2(C(=O)Nc3cc(Cl)ccc32)C12CCCCC2	90.2

---

# System: OVCAR-8 complex spheroid, growth inhibition
# assay.details: Anticancer human tumor OVCAR-8 cell line growth inhibition [Asc];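 further: spheroids exposed to agents for 7 days before readout; percent viability relative to DMSO vehicle wells taken as 100%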
# experimental.conditions: second compound 3.16 µM; first compound 10 µM; active compounds read low
assay.endpoint: viability, T/C

compound	assay.endpoint	result
C=C(F)C(=O)N1CCN(c2nc(OCC3CCCN3C)nc3c2CCN(c2cccc4cccc(Cl)c24)C3)CC1CC#N (stereo unspecified) + Cc1c(S(C)(=O)=O)c(-c2cc(F)cc(N3CCN(c4ccc(NS(=O)(=O)c5ccc(NC(CCN6CCC(C(=O)OCCCP(=O)(O)O)CC6)CSc6ccccc6)c(S(=O)(=O)C(F)(F)F)c5)cc4)CC3)c2)c(-c2ccc(Cl)cc2)n1C(C)C	viability, T/C	0.35%

---

# System: OVCAR-8 complex spheroid, growth inhibition
# assay.details: Anticancer human tumor OVCAR-8 cell line growth inhibition [Asc];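 further: spheroids exposed to agents for 7 days before readout; percent viability relative to DMSO vehicle wells taken as 100%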
# experimental.conditions: second compound 3 µM; first compound 0.01 µM; active compounds read low
Overview of recorded viability, T/C for various molecules

molecule	system.name	viability, T/C
NC1CCC(NC2CC2c2ccccc2)CC1 (stereo unspecified) + CCN1C(C(=O)NC23CCC(C(=O)O)(CC2)CC3)C(c2cccc(Cl)c2F)C2(C(=O)Nc3cc(Cl)ccc32)C12CCCCC2	OVCAR-8 complex spheroid, growth inhibition	110%
CNC(C)C(=O)NC1CN(S(=O)(=O)c2cccc(S(=O)(=O)N3CCC4CCC(C(=O)NC(c5ccccc5)c5ccccc5)N4C(=O)C(NC(=O)C(C)NC)C3)c2)CCC2CCC(C(=O)NC(c3ccccc3)c3ccccc3)N2C1=O (stereo unspecified) + CCN1C(C(=O)NC23CCC(C(=O)O)(CC2)CC3)C(c2cccc(Cl)c2F)C2(C(=O)Nc3cc(Cl)ccc32)C12CCCCC2	OVCAR-8 complex spheroid, growth inhibition	102%
CCN1CCN(Cc2ccc(Nc3ncc(F)c(-c4cc(F)c5nc(C)n(C(C)C)c5c4)n3)nc2)CC1 + CCN1C(C(=O)NC23CCC(C(=O)O)(CC2)CC3)C(c2cccc(Cl)c2F)C2(C(=O)Nc3cc(Cl)ccc32)C12CCCCC2	OVCAR-8 complex spheroid, growth inhibition	112%
Cn1ncnc1[C@H]1c2n[nH]c(=O)c3cc(F)cc(c23)N[C@@H]1c1ccc(F)cc1 + CCN1C(C(=O)NC23CCC(C(=O)O)(CC2)CC3)C(c2cccc(Cl)c2F)C2(C(=O)Nc3cc(Cl)ccc32)C12CCCCC2	OVCAR-8 complex spheroid, growth inhibition	117%
COc1c(OCCCN2CCOCC2)ccc2c3n(c(=NC(=O)c4cnc(N)nc4)nc12)CCN3 + CCN1C(C(=O)NC23CCC(C(=O)O)(CC2)CC3)C(c2cccc(Cl)c2F)C2(C(=O)Nc3cc(Cl)ccc32)C12CCCCC2	OVCAR-8 complex spheroid, growth inhibition	115%
O=C(c1ccc(F)c(F)c1Nc1ccc(I)cc1F)N1CC(O)([C@@H]2CCCCN2)C1 + CCN1C(C(=O)NC23CCC(C(=O)O)(CC2)CC3)C(c2cccc(Cl)c2F)C2(C(=O)Nc3cc(Cl)ccc32)C12CCCCC2	OVCAR-8 complex spheroid, growth inhibition	141%

---

# Lookup of reported viability, T/C keyed by entry
# Test system: OVCAR-8 complex spheroid, growth inhibition
# assay.details: Anticancer human tumor OVCAR-8 cell line growth inhibition [Asc];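 further: spheroids exposed to agents for 7 days before readout; percent viability relative to DMSO vehicle wells taken as 100%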
# experimental.conditions: second compound 1 µM; first compound 0.03 µM; active compounds read low

compound	unit.abbrev	viability, T/C
NC(=O)C(=Cn1cnc(-c2cc(C(F)(F)F)cc(C(F)(F)F)c2)n1)c1cncnc1 + CNC(C)C(=O)NC1CN(S(=O)(=O)c2cccc(S(=O)(=O)N3CCC4CCC(C(=O)NC(c5ccccc5)c5ccccc5)N4C(=O)C(NC(=O)C(C)NC)C3)c2)CCC2CCC(C(=O)NC(c3ccccc3)c3ccccc3)N2C1=O	%	127
Cc1nc(N2CCC3(CC2)COC(C)C3N)c(CO)nc1Sc1ccnc(N)c1Cl (stereo unspecified) + Cc1c(S(C)(=O)=O)c(-c2cc(F)cc(N3CCN(c4ccc(NS(=O)(=O)c5ccc(NC(CCN6CCC(C(=O)OCCCP(=O)(O)O)CC6)CSc6ccccc6)c(S(=O)(=O)C(F)(F)F)c5)cc4)CC3)c2)c(-c2ccc(Cl)cc2)n1C(C)C	%	139
Cc1nc(N2CCC3(CC2)COC(C)C3N)c(CO)nc1Sc1ccnc(N)c1Cl (stereo unspecified) + CNC(C)C(=O)NC1CN(S(=O)(=O)c2cccc(S(=O)(=O)N3CCC4CCC(C(=O)NC(c5ccccc5)c5ccccc5)N4C(=O)C(NC(=O)C(C)NC)C3)c2)CCC2CCC(C(=O)NC(c3ccccc3)c3ccccc3)N2C1=O	%	95.1
CCN1C(C(=O)NC23CCC(C(=O)O)(CC2)CC3)C(c2cccc(Cl)c2F)C2(C(=O)Nc3cc(Cl)ccc32)C12CCCCC2 (stereo unspecified) + Cc1c(S(C)(=O)=O)c(-c2cc(F)cc(N3CCN(c4ccc(NS(=O)(=O)c5ccc(NC(CCN6CCC(C(=O)OCCCP(=O)(O)O)CC6)CSc6ccccc6)c(S(=O)(=O)C(F)(F)F)c5)cc4)CC3)c2)c(-c2ccc(Cl)cc2)n1C(C)C	%	93.1
CCN1C(C(=O)NC23CCC(C(=O)O)(CC2)CC3)C(c2cccc(Cl)c2F)C2(C(=O)Nc3cc(Cl)ccc32)C12CCCCC2 (stereo unspecified) + CNC(C)C(=O)NC1CN(S(=O)(=O)c2cccc(S(=O)(=O)N3CCC4CCC(C(=O)NC(c5ccccc5)c5ccccc5)N4C(=O)C(NC(=O)C(C)NC)C3)c2)CCC2CCC(C(=O)NC(c3ccccc3)c3ccccc3)N2C1=O	%	79.2
NC(=O)C(=Cn1cnc(-c2cc(C(F)(F)F)cc(C(F)(F)F)c2)n1)c1cncnc1 + Cc1c(S(C)(=O)=O)c(-c2cc(F)cc(N3CCN(c4ccc(NS(=O)(=O)c5ccc(NC(CCN6CCC(C(=O)OCCCP(=O)(O)O)CC6)CSc6ccccc6)c(S(=O)(=O)C(F)(F)F)c5)cc4)CC3)c2)c(-c2ccc(Cl)cc2)n1C(C)C	%	116
